Origin of the recorded values: PubChem BioAssay (NCI)

Attribute: TGI
System: DMS 273 small cell lung
Experiment Description: NCI tumour cell line growth inhibition, 48 h

1) Cc1cc(N(CCC#N)CCC#N)ccc1N=Nc1ccc([N+](=O)[O-])cc1 = 44.4 µM

For reference, reported TGI for COc1ccccc1NS(=O)(=O)c1cc(C(C)(C)C)ccc1OCCOc1ccc(C(C)(C)C)cc1S(=O)(=O)Nc1ccccc1OC stands at > 100 µM

O=c1[nH]cnc2c1nnn2C1C=C(CO)C(O)C1O (stereo unspecified) yielded TGI of 60.1 µM

Measured TGI, Fc1cccc(C=NC23CC4CC(CC(C4)C2)C3)c1 : > 100 µM

Value of measured TGI for the entry CCN(CC)CCSc1nc2c([N+](=O)[O-])cccc2[nH]1 : > 100 µM

The value of TGI measured for the compound CCN1CCC(O)(c2ccccc2)C(C(=O)c2ccccc2)C1 (stereo unspecified) turned out to be > 100 µM

====

Tested on: SW-620 colon
Experiment Description: NCI tumour cell line growth inhibition, 48 h
The entries below are paired with their reported TGI.

Check out these entries, answers already filled in.
1. CC(=O)NC1C(OCc2ccccc2)OC(CO)C(O)C1OC(C)C(=O)NC(C(=O)NC(CCC(=O)Nc1ccc2c(c1)CN1C(=O)c3ccccc3C1=N2)C(N)=O)C(C)C (stereo not given) = > 100 µM
2. COC1C2c3ccccc3C(C#N)(Cc3ccc4c(c32)OCO4)N1C(=O)c1ccccc1 (stereo not given) = > 100 µM
3. CCOC(=O)C(NC(=O)Nc1ccccc1F)(OC)C(F)(F)F (stereo not given) = > 100 µM
4. COc1ccc(C(NCCNC(c2ccc(OC)c(OC)c2)c2cc3c(cc2O)OCO3)c2cc3c(cc2O)OCO3)cc1OC (stereo not given) = 3.86 µM

Assay SW-620 colon, sample O=C(O)C1CCCCN1CCc1c[nH]c2ccccc12 (stereo not given) , TGI read: > 100 µM

====

System: SW-620 colon
Experiment Description: NCI tumour cell line growth inhibition, 48 h
The reader will find reported TGI values listed item by item below.

The measured TGI associated with COc1ccc(C(=O)Nc2ccccc2)cc1[N+](=O)[O-] reads > 100 µM

Entry Nc1nccc(C#Cc2cncnc2Nc2ccc(OCc3cccc(F)c3)c(Cl)c2)n1 ; TGI = 7.66 µM

====

Test system: UACC-257 melanoma
Experiment Description: NCI tumour cell line growth inhibition, 48 h
Metric: TGI

1. CCC/C(Cl)=N/OC(=O)Nc1cccc(F)c1 = 28 µM
2. O=C(N/N=C1\CCc2ccccc21)N/N=C1\CCc2ccccc21 = > 100 µM
3. COC(=O)C1(c2ccc(OC)cc2)NC(c2ccccc2)C2C(=O)N(c3ccc(OC)cc3)C(=O)C21 (configuration not stated) = > 100 µM
4. c1ccc(NC2(c3nnnn3C3CCCCC3)CCNCC2)cc1 = 30.6 µM

So, Nc1nccc(C#Cc2cncnc2Nc2ccc(OCc3cccc(F)c3)c(Cl)c2)n1 ? Its TGI was 7.64 µM

Reported TGI for Cn1cc(-c2ccc3c(c2)ncn3-c2ccc(CC(=O)Nc3cc(C(C)(C)C)on3)cc2)cn1 was 53.7 µM

response.value for CSc1nc2ccccc2c(=O)n1-c1cccc(C)c1 (field: TGI) = > 100 µM

// recorded TGI for N=C1SCCS1 : > 100 µM

Per the record, CC(=O)NC1C(OCc2ccccc2)OC(CO)C(O)C1OC(C)C(=O)NC(C(=O)NC(CCC(=O)Nc1ccc2c(c1)CN1C(=O)c3ccccc3C1=N2)C(N)=O)C(C)C (configuration not stated) has TGI of > 100 µM

// recorded TGI for CN(C)c1ccc(C=Nc2ccc(-c3nc4ccccc4o3)cc2)cc1 : 72.5 µM
